These entries and their values trace back to the supplement of paper PMC8728848.

Molecular target: Fuc(a1-2)Gal(b1-4)GlcNAc(b1-3)Gal(b1-4)GlcNAc(b1-3)Gal(b1-4)GlcNAc
Assay: glycan array binding signal (z-score within array); higher = stronger binding
Settings: glycan notation: IUPAC condensed, linker removed
This is one part of a sample in which the strongest signals are shown more often than they occur.
QUANTITY NAME: glycan array binding signal (z-score)
Give your answer as a number; write no unit.

1) Epa11 (Candida glabrata) (protein) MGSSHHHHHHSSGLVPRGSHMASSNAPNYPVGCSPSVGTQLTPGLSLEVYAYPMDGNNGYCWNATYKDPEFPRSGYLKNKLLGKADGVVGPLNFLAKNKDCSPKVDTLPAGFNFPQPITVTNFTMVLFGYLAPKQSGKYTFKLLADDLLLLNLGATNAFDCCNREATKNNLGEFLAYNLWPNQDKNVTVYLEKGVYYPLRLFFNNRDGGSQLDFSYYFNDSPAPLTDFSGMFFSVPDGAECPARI
-0.015

Give its glycan array binding signal (z-score) value. Item: SrpA (Streptococcus sanguis) (protein) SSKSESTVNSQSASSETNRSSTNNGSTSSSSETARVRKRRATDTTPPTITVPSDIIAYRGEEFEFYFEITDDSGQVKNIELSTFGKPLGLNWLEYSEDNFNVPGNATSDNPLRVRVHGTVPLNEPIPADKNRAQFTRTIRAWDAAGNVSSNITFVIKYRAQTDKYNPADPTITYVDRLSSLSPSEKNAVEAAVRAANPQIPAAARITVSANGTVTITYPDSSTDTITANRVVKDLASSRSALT
2.25

What does the record list as glycan array binding signal (z-score) for Epa7 (Candida glabrata), Q6DTM6_CANGB (protein) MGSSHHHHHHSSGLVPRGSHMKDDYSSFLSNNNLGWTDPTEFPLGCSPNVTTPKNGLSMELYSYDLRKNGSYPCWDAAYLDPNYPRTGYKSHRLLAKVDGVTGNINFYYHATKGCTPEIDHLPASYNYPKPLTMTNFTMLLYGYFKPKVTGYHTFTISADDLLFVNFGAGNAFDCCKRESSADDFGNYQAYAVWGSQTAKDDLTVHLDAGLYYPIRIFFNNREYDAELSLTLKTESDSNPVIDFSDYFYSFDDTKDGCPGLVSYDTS ?
-0.253
